Molecular target: Vps34 (Homo sapiens)
Sequence (Q8NEB9 whole entry, species assumed): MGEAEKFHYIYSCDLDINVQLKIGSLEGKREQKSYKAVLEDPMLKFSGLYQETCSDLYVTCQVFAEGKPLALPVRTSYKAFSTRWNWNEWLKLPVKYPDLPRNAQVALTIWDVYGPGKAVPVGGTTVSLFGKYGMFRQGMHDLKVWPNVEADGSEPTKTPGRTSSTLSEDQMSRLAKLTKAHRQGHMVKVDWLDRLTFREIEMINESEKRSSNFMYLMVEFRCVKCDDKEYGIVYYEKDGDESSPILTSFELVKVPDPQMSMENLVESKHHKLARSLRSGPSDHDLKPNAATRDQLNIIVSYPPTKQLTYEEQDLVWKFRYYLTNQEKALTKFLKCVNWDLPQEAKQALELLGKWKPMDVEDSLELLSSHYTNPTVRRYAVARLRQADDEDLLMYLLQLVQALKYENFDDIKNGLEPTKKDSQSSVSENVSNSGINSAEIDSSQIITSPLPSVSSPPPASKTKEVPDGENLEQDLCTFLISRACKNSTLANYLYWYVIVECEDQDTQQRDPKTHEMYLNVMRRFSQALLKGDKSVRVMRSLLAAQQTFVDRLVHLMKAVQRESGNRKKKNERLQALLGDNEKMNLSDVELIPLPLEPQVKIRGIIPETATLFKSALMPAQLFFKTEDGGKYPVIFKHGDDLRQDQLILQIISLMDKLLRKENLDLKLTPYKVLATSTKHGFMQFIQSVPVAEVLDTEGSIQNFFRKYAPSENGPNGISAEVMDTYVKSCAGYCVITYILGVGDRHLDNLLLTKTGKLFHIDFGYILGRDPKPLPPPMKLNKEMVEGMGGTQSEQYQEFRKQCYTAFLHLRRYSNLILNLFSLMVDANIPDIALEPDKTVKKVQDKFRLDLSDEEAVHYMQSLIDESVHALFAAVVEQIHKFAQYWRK
Experiment: Kinase Glo Luminescent Kinase Assay (Kglo), assay C
Type: biochemical
Conditions: read-out: Assay C VPS34 IC50
pIC50: −log10 of the molar value.
Measured pIC50 accompanies every entry in the list below.

Example entries and their recorded answers appear below.
CCn1ncc(-c2nc(-c3cc(S(=O)(=O)NCC(C)(C)O)ccc3C)cnc2N)n1    < 5.00
Cc1cc(-c2nc(-c3cc(S(=O)(=O)NCC(C)(C)N4CCOCC4)ccc3C)cnc2N)ccn1    < 5.04
Cc1ccc(S(=O)(=O)NCC2(O)CCCC2)cc1-c1cnc(N)c(-n2cncn2)n1    < 5.00
CCn1cc(-c2nc(-c3cc(S(=O)(=O)NCCC(C)(C)O)ccc3C)cnc2N)cn1    < 5.04
Cc1ccc(S(=O)(=O)NCCC(C)(C)O)cc1-c1cnc(N)c(-c2ccc(N3CCOCC3)nc2)n1    < 5.04

stdin: Which measured pIC50 value corresponds to Cc1cc(F)c(S(=O)(=O)NCCC(C)(C)O)cc1-c1cnc(N)c(-c2cnn(C)c2)n1 ?
stdout: 5.05

stdin: Look up pIC50: Cc1cc(-c2nc(-c3cc(S(=O)(=O)N4CC5(CNC5)C4)ccc3C)cnc2N)ccn1
stdout: < 5.04

stdin: Form field: reported pIC50 of Cc1ccc(S(=O)(=O)NCCC(C)(C)O)cc1-c1cnc(N)c(-c2ccncc2F)n1
stdout: < 5.04

====

Target: mTOR (Homo sapiens)
Assay: Lanthascreen kinase binding assay, assay G
Details: read-out: Assay G mTOR IC50
pIC50: −log10 of the molar value.
measurement_name: pIC50

Cc1ccc(S(=O)(=O)NCCC(C)(C)O)cc1-c1cnc(N)c(-c2cc(Cl)cnc2F)n1    5.23

P: CCCc1noc(-c2nc(-c3cc(S(=O)(=O)N[C@H]4CC[C@H](O)CC4)ccc3C)cnc2N)n1
Q: Cc1ncc(-c2nc(-c3cc(S(=O)(=O)NC[C@H]4C[C@H](O)C4)ccc3C)cnc2N)s1 [Example 20b]
R: Cc1ccc(S(=O)(=O)NCCC(C)(C)O)cc1-c1cnc(N)c(-c2cccnc2Cl)n1
stdin: # rank by pIC50, ascending (min first) List the labels, following the order given in the request.
stdout: P, R, Q

====

Molecular target: PI 3-kinase alpha (Homo sapiens, UniProt P42336)
Sequence (P42336 whole entry): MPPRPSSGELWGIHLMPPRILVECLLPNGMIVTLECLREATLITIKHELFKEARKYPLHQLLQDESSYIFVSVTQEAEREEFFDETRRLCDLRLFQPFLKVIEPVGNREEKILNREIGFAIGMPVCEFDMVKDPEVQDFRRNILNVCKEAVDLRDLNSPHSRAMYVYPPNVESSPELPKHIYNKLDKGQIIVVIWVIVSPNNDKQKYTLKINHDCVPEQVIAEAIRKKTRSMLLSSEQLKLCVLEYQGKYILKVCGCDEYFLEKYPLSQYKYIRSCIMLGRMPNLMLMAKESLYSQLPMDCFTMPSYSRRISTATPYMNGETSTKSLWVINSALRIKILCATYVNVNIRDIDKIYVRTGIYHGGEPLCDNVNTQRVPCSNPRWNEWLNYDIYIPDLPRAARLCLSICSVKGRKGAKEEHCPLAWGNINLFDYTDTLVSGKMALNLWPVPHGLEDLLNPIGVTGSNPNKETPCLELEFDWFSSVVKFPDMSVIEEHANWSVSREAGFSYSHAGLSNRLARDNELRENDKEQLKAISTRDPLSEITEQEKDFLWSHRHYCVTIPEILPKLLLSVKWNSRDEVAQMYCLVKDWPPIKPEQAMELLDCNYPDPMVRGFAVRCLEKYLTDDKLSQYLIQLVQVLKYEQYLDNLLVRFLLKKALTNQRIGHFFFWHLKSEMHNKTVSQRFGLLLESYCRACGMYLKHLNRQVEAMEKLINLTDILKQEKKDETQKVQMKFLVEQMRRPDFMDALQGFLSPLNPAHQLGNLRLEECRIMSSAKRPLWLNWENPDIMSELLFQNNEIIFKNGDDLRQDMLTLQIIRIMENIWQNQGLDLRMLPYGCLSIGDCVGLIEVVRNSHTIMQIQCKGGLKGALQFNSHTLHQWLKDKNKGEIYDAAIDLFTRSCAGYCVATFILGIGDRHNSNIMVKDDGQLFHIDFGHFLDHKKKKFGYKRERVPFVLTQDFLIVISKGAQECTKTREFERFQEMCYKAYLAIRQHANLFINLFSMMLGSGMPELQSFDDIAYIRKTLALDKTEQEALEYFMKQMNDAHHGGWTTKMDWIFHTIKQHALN
Test: Kinase Glo Luminescent Kinase Assay (Kglo), assay A
Format: biochemical
Conditions: read-out: Assay A PI3Kα IC50
pIC50: −log10 of the molar value.
measurement_name: pIC50

Cc1ccc(S(=O)(=O)NCCC(C)(C)O)cc1-c1cnc(N)c(-c2cnn(Cc3ccncc3)c2)n1    7.00
Cc1ccc(S(=O)(=O)NCC2(CO)CCC2)cc1-c1cnc(N)c(-n2cncn2)n1    7.00
Cc1ccc(S(=O)(=O)NCC[C@@H](O)C(F)(F)F)cc1-c1cnc(N)c(-c2cn(C)nc2C)n1 (single isomer, unassigned) [Example 52a]    6.77

1: Cc1ccc(S(=O)(=O)NCC2(CO)COC2)cc1-c1cnc(N)c(-c2cn(C)nc2C)n1
2: Cc1ccc(S(=O)(=O)NCCC(C)(C)O)cc1-c1cnc(N)c(-c2ccc(CO)s2)n1
stdin: Name the one with the greater pIC50 value, either 1 or 2 as given. Response format: the label of the selected entry.
stdout: 2

====

Molecular target: UniProtKB P42345
Experiment: Lanthascreen kinase binding assay, assay G
Conditions: read-out: Assay G mTOR IC50
Where a name gives a salt, the structure may show the parent alone.
measurement_name: IC50

Consider the following illustrative entries.
Cc1ccc(S(=O)(=O)NC[C@@H]2CCC(C)(C)O2)cc1-c1cnc(N)c(-n2cncn2)n1 [Example 127.39]    9.3 µM
Cc1cc(-c2nc(-c3cc(S(=O)(=O)NCCN4CCCC4)ccc3C)cnc2N)ccn1    > 9.1 µM
Cc1ccc(S(=O)(=O)NCCC(C)(C)O)cc1-c1cnc(N)c(-c2cnn(Cc3ccccn3)c2)n1    > 9.1 µM

stdin: Name the reported IC50 value associated with the compound Cc1cc(-c2nc(-c3cc(S(=O)(=O)NC4CCN(C)CC4)ccc3C)cnc2N)ccn1
stdout: > 9.1 µM

stdin: Quick check: IC50 of Cc1ccc(S(=O)(=O)N[C@H]2CC[C@H](O)CC2)cc1-c1cnc(N)c(-c2cnn(C)c2)n1 ?
stdout: > 9.1 µM

stdin: Using the record for Cc1cc(-c2nc(-c3cc(S(=O)(=O)NCCN)ccc3C)cnc2N)ccn1 , report its IC50.
stdout: > 9.1 µM

stdin: Fill blank: measured IC50 of the compound Cc1ccc(S(=O)(=O)N[C@@H]2CNC[C@H]2O)cc1-c1cnc(N)c(-n2cncn2)n1 [Example 127.60, trifluoroacetic acid salt] is ____.
stdout: > 10 µM

====

Target: UniProtKB Q8NEB9
Test: Kinase Glo Luminescent Kinase Assay (Kglo), assay C
Assay type: biochemical
Conditions: read-out: Assay C VPS34 IC50
Where a name gives a salt, the structure may show the parent alone.
measurement_name: IC50

Consider the following illustrative entries.
Cc1ccc(S(=O)(=O)NOCC(C)(C)O)cc1-c1cnc(N)c(-c2cn(C)nc2C)n1    > 10 µM
Cc1cc(-c2nc(-c3cc(S(=O)(=O)NCCN4CCOCC4)ccc3C)cnc2N)ccn1    > 9.1 µM
Cc1ccc(S(=O)(=O)NCCC(C)(C)O)cc1-c1cnc(N)c(-c2cnn(C)c2C)n1    > 9.1 µM
Cc1ccc(S(=O)(=O)N[C@H]2CC[C@H](O)CC2)cc1-c1cnc(N)c(-c2cccnc2)n1    > 9.1 µM
Cc1ccc(S(=O)(=O)NCC(C)(C)CO)cc1-c1cnc(N)c(-n2cncn2)n1    > 9.1 µM

stdin: Entry Cc1ccc(S(=O)(=O)NCCC(C)(C)O)cc1-c1cnc(N)c(-c2ccncc2)n1 : reported IC50 = ?
stdout: > 9.1 µM

stdin: Return reported IC50; argument: Cc1cc(-c2nc(-c3cc(S(=O)(=O)NCCCCCO)ccc3C)cnc2N)ccn1
stdout: > 9.1 µM

stdin: Request the reported IC50 associated with Cc1cc(-c2nc(-c3cc(S(=O)(=O)NC4CCNC(=O)C4)ccc3C)cnc2N)ccn1 (stereo not shown)
stdout: > 9.1 µM

stdin: What does the data say about its IC50? Entry: Cc1ccc(S(=O)(=O)NCCC(C)(C)O)cc1-c1cnc(N)c(-c2cnn(Cc3cccnc3)c2)n1
stdout: > 9.1 µM

stdin: What IC50 value was documented for this molecule, Cc1ncc(-c2nc(-c3cc(S(=O)(=O)NCC4(CO)COC4)ccc3C)cnc2N)s1 ?
stdout: 2.3 µM

stdin: Which IC50 is listed for Cc1ccc(S(=O)(=O)NCCC(C)(C)O)cc1-c1cnc(N)c(-c2cn(C)nc2C)n1 ?
stdout: > 9.1 µM

stdin: Query: IC50; subject: Cc1ccc(S(=O)(=O)NCC(C)(C)O)cc1-c1cnc(N)c(-n2cnc(CN(C)C)n2)n1 [Example 117, hydrochloride salt]
stdout: > 10 µM

====

Target: PI 3-kinase gamma (Homo sapiens, UniProt P48736)
Sequence (P48736 whole entry): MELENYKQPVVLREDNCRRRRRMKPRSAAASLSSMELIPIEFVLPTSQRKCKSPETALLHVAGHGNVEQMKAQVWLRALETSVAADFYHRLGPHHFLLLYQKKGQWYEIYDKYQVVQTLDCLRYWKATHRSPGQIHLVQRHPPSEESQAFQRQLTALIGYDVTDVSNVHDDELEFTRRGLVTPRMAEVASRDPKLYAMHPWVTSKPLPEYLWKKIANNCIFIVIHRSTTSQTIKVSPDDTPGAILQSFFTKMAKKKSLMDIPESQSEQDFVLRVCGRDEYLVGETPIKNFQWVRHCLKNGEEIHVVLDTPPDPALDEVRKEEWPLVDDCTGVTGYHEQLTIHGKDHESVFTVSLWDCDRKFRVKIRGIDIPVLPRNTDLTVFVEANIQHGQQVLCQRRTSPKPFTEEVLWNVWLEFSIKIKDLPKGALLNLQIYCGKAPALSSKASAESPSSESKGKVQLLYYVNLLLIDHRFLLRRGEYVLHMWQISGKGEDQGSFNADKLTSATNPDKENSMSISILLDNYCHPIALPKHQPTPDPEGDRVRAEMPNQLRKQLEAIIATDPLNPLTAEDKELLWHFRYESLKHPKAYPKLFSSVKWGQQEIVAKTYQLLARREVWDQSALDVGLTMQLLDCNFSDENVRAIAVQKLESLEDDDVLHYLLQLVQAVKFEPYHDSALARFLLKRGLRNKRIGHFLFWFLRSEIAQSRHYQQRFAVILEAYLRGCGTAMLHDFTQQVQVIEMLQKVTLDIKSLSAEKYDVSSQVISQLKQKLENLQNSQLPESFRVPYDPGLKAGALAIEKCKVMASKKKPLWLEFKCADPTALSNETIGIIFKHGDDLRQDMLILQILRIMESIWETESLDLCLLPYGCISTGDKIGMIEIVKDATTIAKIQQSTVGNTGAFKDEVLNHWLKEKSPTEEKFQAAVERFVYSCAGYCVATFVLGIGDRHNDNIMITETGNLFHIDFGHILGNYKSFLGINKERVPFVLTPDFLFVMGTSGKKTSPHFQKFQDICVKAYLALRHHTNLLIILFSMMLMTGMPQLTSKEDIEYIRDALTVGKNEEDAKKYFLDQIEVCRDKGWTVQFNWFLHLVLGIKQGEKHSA
Test: Cellular U937 AKT assay K2 (HTRF)
Assay type: cell-based
Conditions: U937 cells, K2 format; read-out: Assay K2 PI3Kγ IC50
Where a name gives a salt, the structure may show the parent alone.
measurement_name: IC50 (nM)

Worked cases, IC50 given:
CCN1CCC[C@@H]1CNS(=O)(=O)c1ccc(C)c(-c2cnc(N)c(-c3cnc(C)s3)n2)c1 [Example 41]    24
CCONS(=O)(=O)c1ccc(C)c(-c2cnc(N)c(-n3cncn3)n2)c1 [Example 112]    172

1: Cc1ncc(-c2nc(-c3cc(S(=O)(=O)N[C@H]4C[C@@H](O)C4)ccc3C)cnc2N)s1 [Example 43a]
2: Cc1ccc(S(=O)(=O)N2CC(F)C2)cc1-c1cnc(N)c(-n2cncn2)n1 [Example 127.5]
3: Cc1ncc(-c2nc(-c3cc(S(=O)(=O)NCC4(O)CCOCC4)ccc3C)cnc2N)s1 [Example 45.10]
4: Cc1ccc(S(=O)(=O)NCC(C)(C)O)cc1-c1cnc(N)c(-c2ccoc2)n1 [Example 39]
5: Cc1ccc(S(=O)(=O)NC[C@@H]2COCCN2)cc1-c1cnc(N)c(-c2cn(C)nc2C)n1 [Example 128.6]
stdin: Please rank these molecules by IC50 in descending order. List the labels according to the requested ordering.
stdout: 4, 2, 5, 1, 3
(4: 999 nM, 2: 419 nM, 5: 193 nM, 1: 68 nM, 3: 30 nM)

I: Cc1ccc(S(=O)(=O)NCC2(O)CCCC2)cc1-c1cnc(N)c(-n2cncn2)n1 [Example 127.35]
II: Cc1ccc(S(=O)(=O)NCC2(C)COC2)cc1-c1cnc(N)c(-c2cnn(C)c2)n1 [Example 5]
stdin: Hi, I'm comparing two records. Which one has the lower IC50, I or II ? In your reply, give the label of the chosen option.
stdout: II
(II: 261 nM, I: 391 nM)

a: Cc1ccc(S(=O)(=O)NOC(C)(C)C)cc1-c1cnc(N)c(-n2cncn2)n1 [Example 112.1]
b: Cc1ccc(S(=O)(=O)NCC(C)(C)O)cc1-c1cnc(N)c(-n2cnc(CN(C)C)n2)n1 [Example 117, hydrochloride salt]
c: Cc1cc(-c2nc(-c3cc(S(=O)(=O)NC[C@H]4CCCO4)ccc3C)cnc2N)ccn1 [Example 129.12]
d: Cc1cc(F)c(S(=O)(=O)NCC(C)(C)O)cc1-c1cnc(N)c(-n2cncn2)n1 [Example 122]
e: Cc1ncc(-c2nc(-c3cc(S(=O)(=O)NC[C@H]4C[C@@H](O)C4)ccc3C)cnc2N)s1 [Example 20a]
stdin: Reorder: IC50, max to min. Form entry: ranked labels (order as requested).
stdout: c, b, d, a, e
(c: 1600 nM, b: 945 nM, d: 296 nM, a: 63 nM, e: 23 nM)
